# System: Fibroblast
# assayRemarks: Multiplex assay against human fibroblast
# Type: toxicity, cell-based
# experimentalContext: 12 h, 1 µM, compound concentration 1 uM, replicate 1
Lab note - cut at 40% for Population Healthy Nuclei (%): Y if strictly below, N if not.

Below are worked cases with known answers.
# smilesRepresentation, discreteLabel
measured = [
    ("CCCSc1nc(N[C@@H]2C[C@H]2c2ccc(F)c(F)c2)c2nnn([C@@H]3C[C@H](OCCO)[C@@H](O)[C@H]3O)c2n1", "N"),
    ("CC(C)OC(=O)N1CCC(Oc2ncnc3c2cnn3-c2ccc(S(C)(=O)=O)cc2F)CC1", "N"),
    ("O=c1[nH]c2ccccc2n1C1CCN(Cc2ccc(-c3[nH]c4cc5ncnc5cc4nc3-c3ccccc3)cc2)CC1", "N"),
]

# ---- query molecule ----
Dear colleague, could you confirm whether Population Healthy Nuclei (%) of C=CC(=O)Nc1cccc(Sc2nc(Nc3ccc(N4CCN(C)CC4)cc3)ncc2Cl)c1 falls below 40%? Thanks.
Y

====

Parameter Population Normal (%): see the listing below.
# Tested on: Fibroblast
# assayRemarks: Multiplex assay against human fibroblast
# Assay type: toxicity, cell-based
# experimentalContext: 48 h, 10 µM, compound concentration 10 uM, replicate 2
Give your result in % as a bare value.

Field: example entries. Status: answers known.
# smilesRepresentation, testValue
measured = [
    ("CCOC(=O)Nc1cc(-c2ccc(C)c(NS(C)(=O)=O)c2)nn2c(C)nnc12", 89),
    ("Cc1c[nH]c2nccc(Oc3c(F)cc(Nc4cc(Cl)nc(N)n4)cc3F)c12", 82),
    ("CCCSc1nc(N[C@@H]2C[C@H]2c2ccc(F)c(F)c2)c2nnn([C@@H]3C[C@H](OCCO)[C@@H](O)[C@H]3O)c2n1", 94),
    ("Cl.O=C(O)c1cc(-c2ccc(C3CCNCC3)cc2)c2ccc(-c3ccc(C(F)(F)F)cc3)cc2c1", 90),
    ("CC(C)(C)NC[C@H](O)COc1nsnc1N1CCOCC1", 90),
]

Entry CC(C)NC(=O)N1CC[C@H](NC2=Nc3cc(F)ccc3N(CC(F)F)c3ccc(Cl)cc32)C1 — recorded Population Normal (%) = 92

Entry C[C@]12CC[C@@H]3c4ccc(O)cc4CC[C@H]3[C@@H]1CC[C@@H]2O — recorded Population Normal (%) = 97

====

# Tested on: Fibroblast
# assayRemarks: Multiplex assay against human fibroblast
# Format: toxicity, cell-based
# experimentalContext: 12 h, 1 µM, compound concentration 1 uM, replicate 1
outcomeMeasure: Population Pyknosed Nuclei (%)
Give your result in % as a bare value.

Field: example entries. Status: answers known.
# molecule, displayUnit, Population Pyknosed Nuclei (%)
rows = [
    ("Cl.O=C(O)c1cc(-c2ccc(C3CCNCC3)cc2)c2ccc(-c3ccc(C(F)(F)F)cc3)cc2c1", "%", 37),
    ("COc1ccccc1CN[C@H]1C2CCN(CC2)[C@H]1C(c1ccccc1)c1ccccc1 [CP-96345]", "%", 30),
    ("CCOC(=O)Nc1cc(-c2ccc(C)c(NS(C)(=O)=O)c2)nn2c(C)nnc12", "%", 24),
    ("CC1=C(C(=O)Nc2cc3cn[nH]c3cc2F)C(c2ccc(C(F)(F)F)cc2)CC(=O)N1 (stereo unspecified)", "%", 29),
]

Entry COc1cc(Nc2nccc(-c3cnn4nc(OC)ccc34)n2)cc(C(F)(F)F)c1 — recorded Population Pyknosed Nuclei (%) = 30

Entry Cc1c[nH]c2nccc(Oc3c(F)cc(Nc4cc(Cl)nc(N)n4)cc3F)c12 [BAY-549] — recorded Population Pyknosed Nuclei (%) = 33
